Documented log10 IC50 across a set of molecules
System: HEL
Assay Explanation: Antiproliferative activity against HEL cells assessed as cell growth inhibition incubated for 8 hrs by CCK8 assay
Format: functional, cell-based
Condition Info: Homo sapiens
log10 IC50, nM

Below, each entry is followed by its recorded log10 IC50 result.
CN1c2ccc(F)cc2C(=O)N2CCc3c([nH]c4ccc(OCc5ccc(/C=C/C(=O)Nc6ccccc6N)cc5)cc34)C21 (stereo not drawn) = 2.38
CN1c2ccc(F)cc2C(=O)N2CCc3c([nH]c4ccc(O)cc34)C21 (stereo not drawn) = 2.11
CN1c2ccc(F)cc2C(=O)N2CCc3c([nH]c4ccc(OCc5ccc(CC(=O)NO)cc5)cc34)C21 (stereo not drawn) = 2.00
CN1c2ccc(F)cc2C(=O)N2CCc3c([nH]c4ccc(OCc5ccc(/C=C/C(=O)NO)cc5)cc34)C21 (stereo not drawn) = 1.46
CN1c2ccc(F)cc2C(=O)N2CCc3c([nH]c4ccc(OCc5ccccc5C(=O)Nc5ccccc5N)cc34)C21 (stereo not drawn) = 2.91

Requested field: log10 IC50. Item: CN1c2ccc(F)cc2C(=O)N2CCc3c([nH]c4ccc(OCCCCCC(=O)Nc5ccccc5N)cc34)C21 (stereo not drawn)
3.04

Now consider CN1c2ccc(F)cc2C(=O)N2CCc3c([nH]c4ccc(OCCCCCCCC(=O)NO)cc34)C21 (stereo not drawn) .
3.20

Further, for CN1c2ccc(F)cc2C(=O)N2CCc3c([nH]c4ccc(OCCCC(=O)Nc5ccccc5N)cc34)C21 (stereo not drawn) ?
2.54

---

List of pIC50 values.
Tested on: HCT-116
Assay Explanation: Antiproliferative activity against human HCT-116 cells assessed as cell growth inhibition incubated for 8 hrs by CCK8 assay
Format: functional, cell-based
Condition Info: HCT-116, 8 h
pIC50 (log units): -log10 of the concentration in mol/L.

Below, each entry is followed by its recorded pIC50 result.
CN1c2ccc(F)cc2C(=O)N2CCc3c([nH]c4ccc(OCc5ccc(C(=O)NO)cc5)cc34)C21 (stereo not drawn) = 6.30
CC[C@@]1(O)C(=O)OCc2c1cc1n(c2=O)Cc2cc3c(CN(C)C)c(O)ccc3nc2-1 [TOPOTECAN] = 6.01
CN1c2ccc(F)cc2C(=O)N2CCc3c([nH]c4ccc(O)cc34)C21 (stereo not drawn) = 6.72

We now examine a further compound.
Any idea what pIC50 came out for CN1c2ccc(F)cc2C(=O)N2CCc3c([nH]c4ccc(OCc5ccc(/C=C/C(=O)NO)cc5)cc34)C21 (stereo not drawn) on HCT-116?
6.68

---

Tested on: K562
Assay Explanation: Antiproliferative activity against human K562 cells assessed as cell growth inhibition incubated for 8 hrs by CCK8 assay
Format: functional, cell-based
Condition Info: K562, 8 h
Catalogue of IC50 readings, one per entry.
Lab book: enter the figure in nM, no units written.

Requested read-out: IC50. Entry: CN1c2ccc(F)cc2C(=O)N2CCc3c([nH]c4ccc(OCc5ccccc5C(=O)Nc5ccccc5N)cc34)C21 (stereo not drawn)
920

---

Experimental Target: Histone deacetylase 1 (Homo sapiens)
Sequence (Q13547 whole entry): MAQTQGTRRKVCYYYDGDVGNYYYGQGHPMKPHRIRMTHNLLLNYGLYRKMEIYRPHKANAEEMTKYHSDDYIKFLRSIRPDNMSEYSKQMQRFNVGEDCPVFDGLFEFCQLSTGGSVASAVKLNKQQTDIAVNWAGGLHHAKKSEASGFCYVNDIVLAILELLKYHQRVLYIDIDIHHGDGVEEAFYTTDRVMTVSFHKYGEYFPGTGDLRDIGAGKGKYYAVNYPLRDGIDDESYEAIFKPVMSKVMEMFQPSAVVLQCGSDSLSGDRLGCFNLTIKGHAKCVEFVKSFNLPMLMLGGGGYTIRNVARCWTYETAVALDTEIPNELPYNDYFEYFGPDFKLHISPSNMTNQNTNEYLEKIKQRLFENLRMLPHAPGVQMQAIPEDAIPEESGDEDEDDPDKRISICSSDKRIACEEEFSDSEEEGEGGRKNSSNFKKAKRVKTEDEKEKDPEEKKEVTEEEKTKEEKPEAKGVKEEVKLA
Assay Explanation: Inhibition of full-length recombinant human HDAC1 expressed in Baculovirus expression system using Ac-Leu-Gly-Lys(Ac)-AMC as substrate preincubated for 5 mins followed by substrate addition and further incubated for 30 mins by fluorescence based microtiter plate reader assay
Label True when IC50 is strictly below 2 µM; otherwise label False.

CN1c2ccc(F)cc2C(=O)N2CCc3c([nH]c4ccc(OCc5ccc(C(=O)NO)cc5)cc34)C21 (stereo not given) = True
CN1c2ccc(F)cc2C(=O)N2CCc3c([nH]c4ccc(OCc5ccc(/C=C/C(=O)Nc6ccccc6N)cc5)cc34)C21 (stereo not given) = True
CN1c2ccc(F)cc2C(=O)N2CCc3c([nH]c4ccc(OCc5cccc(C(=O)Nc6ccccc6N)c5)cc34)C21 (stereo not given) = False
CN1c2ccc(F)cc2C(=O)N2CCc3c([nH]c4ccc(OCCCCCCC(=O)Nc5ccccc5N)cc34)C21 (stereo not given) = True
CN1c2ccc(F)cc2C(=O)N2CCc3c([nH]c4ccc(OCc5ccccc5C(=O)NO)cc34)C21 (stereo not given) = False
CN1c2ccc(F)cc2C(=O)N2CCc3c([nH]c4ccc(OCc5ccc(/C=C/C(=O)NO)cc5)cc34)C21 (stereo not given) = True
CN1c2ccc(F)cc2C(=O)N2CCc3c([nH]c4ccc(OCc5ccccc5C(=O)Nc5ccccc5N)cc34)C21 (stereo not given) = True
CN1c2ccc(F)cc2C(=O)N2CCc3c([nH]c4ccc(OCc5cccc(C(=O)NO)c5)cc34)C21 (stereo not given) = True

Does the reported IC50 of the following compound sit strictly below 2 µM? CN1c2ccc(F)cc2C(=O)N2CCc3c([nH]c4ccc(OCCCCCC(=O)NO)cc34)C21 (stereo not given)
True

Do the same for CN1c2ccc(F)cc2C(=O)N2CCc3c([nH]c4ccc(OCCCC(=O)NO)cc34)C21 (stereo not given) please
False

FYI, the data here is from ChEMBL document CHEMBL5046291.
